tested on: symbiotic zooxanthellae released from coral nubbins; experiment: Zooxanthellae counts: zooxanthellae released in water surrounding coral nubbins; type: in vivo, Acropora sp.; conditions: end of incubation (72 h)
# label = True if Total zooxanthellae released >= 20000 cells ml^−1 else False

Example entries begin here.
{"COMPOUND": "CCCCCCOC(=O)c1ccccc1C(=O)c1ccc(N(CC)CC)cc1O", "CLASS": "False"}
{"COMPOUND": "CC1=C(/C=C/C(C)=C/C=C/C(C)=C/CO)C(C)(C)CCC1", "CLASS": "False"}
{"COMPOUND": "CC(C)(C)CC(C)(C)c1cc(Cc2cc(C(C)(C)CC(C)(C)C)cc(-n3nc4ccccc4n3)c2O)c(O)c(-n2nc3ccccc3n2)c1", "CLASS": "False"}
{"COMPOUND": "CCCCC(CC)COC(=O)c1ccc(Nc2nc(Nc3ccc(C(=O)OCC(CC)CCCC)cc3)nc(Nc3ccc(C(=O)OCC(CC)CCCC)cc3)n2)cc1 (centres unmarked)", "CLASS": "False"}
{"COMPOUND": "CO[C@@]12[C@H](COC(N)=O)C3=C(C(=O)C(C)=C(N)C3=O)N1C[C@@H]1N[C@@H]12 [MITO, Mitomycin C, reference compound]", "CLASS": "True"}

hey, is Total zooxanthellae released for this one >= 20000 cells ml^−1? CC(=O)Oc1c(C)c(C)c2c(c1C)CCC(C)(CCC[C@H](C)CCC[C@H](C)CCCC(C)C)O2 (mixture of isomers) [System D17, DL-tocopherol-acetate] True

hey, is Total zooxanthellae released for this one >= 20000 cells ml^−1? "Cc1c(C)c2c(c(C)c1O)CC[C@@](C)(CCC[C@H](C)CCC[C@H](C)CCCC(C)C)O2" True

hey, is Total zooxanthellae released for this one >= 20000 cells ml^−1? CCCCCCCCCCCCCCCC(=O)OC/C=C(C)/C=C/C=C(C)/C=C/C1=C(C)CCCC1(C)C [System D19, retinyl palmitate] False

----------
test system: symbiotic zooxanthellae released from coral nubbins; assay: Zooxanthellae counts: zooxanthellae released in water surrounding coral nubbins; assay type: in vivo, Acropora sp.; details: end of incubation (72 h)
Listed here: items and their measured Transparent (i.e., dead) zooxanthellae released.
Give just the number in cells ml^−1; leave the unit off.

{"COMPOUND": "CO[C@@]12[C@H](COC(N)=O)C3=C(C(=O)C(C)=C(N)C3=O)N1C[C@@H]1N[C@@H]12 [MITO, Mitomycin C, reference compound]", "UNITS LABEL": "cells ml^−1", "ASSAY VALUE": "1.68E+04"}
{"COMPOUND": "CCCCCCCCCCCCCCCC(=O)OC/C=C(C)/C=C/C=C(C)/C=C/C1=C(C)CCCC1(C)C [System D19, retinyl palmitate]", "UNITS LABEL": "cells ml^−1", "ASSAY VALUE": "5.97E+03"}
{"COMPOUND": "CC(=O)Oc1c(C)c(C)c2c(c1C)CCC(C)(CCC[C@H](C)CCC[C@H](C)CCCC(C)C)O2 (mixture of isomers) [System D17, DL-tocopherol-acetate]", "UNITS LABEL": "cells ml^−1", "ASSAY VALUE": "2.42E+04"}
{"COMPOUND": "CCCCCCOC(=O)c1ccccc1C(=O)c1ccc(N(CC)CC)cc1O [System D25]", "UNITS LABEL": "cells ml^−1", "ASSAY VALUE": "7.25E+03"}
{"COMPOUND": "CCCCC(CC)COC(=O)c1ccc(Nc2nc(Nc3ccc(C(=O)OCC(CC)CCCC)cc3)nc(Nc3ccc(C(=O)OCC(CC)CCCC)cc3)n2)cc1 (centres unmarked) [System D24, ethylhexyl triazone]", "UNITS LABEL": "cells ml^−1", "ASSAY VALUE": "1.02E+04"}
{"COMPOUND": "CC(C)(C)CC(C)(C)c1cc(Cc2cc(C(C)(C)CC(C)(C)C)cc(-n3nc4ccccc4n3)c2O)c(O)c(-n2nc3ccccc3n2)c1 [System D22]", "UNITS LABEL": "cells ml^−1", "ASSAY VALUE": "1.06E+04"}
{"COMPOUND": "CC1=C(/C=C/C(C)=C/C=C/C(C)=C/CO)C(C)(C)CCC1 [System D20, Retinol]", "UNITS LABEL": "cells ml^−1", "ASSAY VALUE": "6.84E+03"}

With those in mind, consider the next compound.
Lab book: Transparent (i.e., dead) zooxanthellae released of Cc1c(C)c2c(c(C)c1O)CC[C@@](C)(CCC[C@H](C)CCC[C@H](C)CCCC(C)C)O2 [System D16, Alpha-tocopherol] noted as 1.01E+04

----------
system: prokaryotes in water surrounding coral nubbins; assay: Prokaryotic (bacterial) abundance and enrichment in seawater surrounding coral nubbins (microcosm incubation); conditions: incubation 0 (start); seawater surrounding Acropora sp. nubbins
Listed here: items and their measured Bacterial abundance (total bacterial number, TBN).
Give the value as a plain number.

// solved cases for Bacterial abundance (total bacterial number, TBN) follow
{"MOLECULE": "CCCCCCOC(=O)c1ccccc1C(=O)c1ccc(N(CC)CC)cc1O", "ASSAY VALUE": "3.67E+05"}
{"MOLECULE": "CC(=O)Oc1c(C)c(C)c2c(c1C)CCC(C)(CCC[C@H](C)CCC[C@H](C)CCCC(C)C)O2 (mixture of isomers) [System D17, DL-tocopherol-acetate]", "ASSAY VALUE": "5.80E+04"}
{"MOLECULE": "Cc1c(C)c2c(c(C)c1O)CC[C@@](C)(CCC[C@H](C)CCC[C@H](C)CCCC(C)C)O2", "ASSAY VALUE": "3.78E+04"}
{"MOLECULE": "CC1=C(/C=C/C(C)=C/C=C/C(C)=C/CO)C(C)(C)CCC1", "ASSAY VALUE": "3.62E+04"}
{"MOLECULE": "CO[C@@]12[C@H](COC(N)=O)C3=C(C(=O)C(C)=C(N)C3=O)N1C[C@@H]1N[C@@H]12 [MITO, Mitomycin C, reference compound]", "ASSAY VALUE": "1.11E+05"}

Note to self: Bacterial abundance (total bacterial number, TBN) of "CC(C)(C)CC(C)(C)c1cc(Cc2cc(C(C)(C)CC(C)(C)C)cc(-n3nc4ccccc4n3)c2O)c(O)c(-n2nc3ccccc3n2)c1" with prokaryotes in water surrounding coral nubbins was 5.47E+04

Note to self: Bacterial abundance (total bacterial number, TBN) of CCCCCCCCCCCCCCCC(=O)OC/C=C(C)/C=C/C=C(C)/C=C/C1=C(C)CCCC1(C)C [System D19, retinyl palmitate] with prokaryotes in water surrounding coral nubbins was 3.62E+04

Note to self: Bacterial abundance (total bacterial number, TBN) of CCCCC(CC)COC(=O)c1ccc(Nc2nc(Nc3ccc(C(=O)OCC(CC)CCCC)cc3)nc(Nc3ccc(C(=O)OCC(CC)CCCC)cc3)n2)cc1 (centres unmarked) with prokaryotes in water surrounding coral nubbins was 2.09E+04

----------
test system: symbiotic zooxanthellae released from coral nubbins; experiment: Zooxanthellae counts: zooxanthellae released in water surrounding coral nubbins; type: in vivo, Acropora sp.; conditions: of total released, end of incubation
OBSERVATION TYPE: Percentage of transparent zooxanthellae released (%)
Give just the number in %; leave the unit off.

// solved cases for Percentage of transparent zooxanthellae released follow
{"COMPOUND": "CCCCC(CC)COC(=O)c1ccc(Nc2nc(Nc3ccc(C(=O)OCC(CC)CCCC)cc3)nc(Nc3ccc(C(=O)OCC(CC)CCCC)cc3)n2)cc1 (centres unmarked)", "UNITS LABEL": "%", "ASSAY VALUE": 54}
{"COMPOUND": "CC(C)(C)CC(C)(C)c1cc(Cc2cc(C(C)(C)CC(C)(C)C)cc(-n3nc4ccccc4n3)c2O)c(O)c(-n2nc3ccccc3n2)c1", "UNITS LABEL": "%", "ASSAY VALUE": 59}
{"COMPOUND": "CC(=O)Oc1c(C)c(C)c2c(c1C)CCC(C)(CCC[C@H](C)CCC[C@H](C)CCCC(C)C)O2 (mixture of isomers) [System D17, DL-tocopherol-acetate]", "UNITS LABEL": "%", "ASSAY VALUE": 54}
{"COMPOUND": "CO[C@@]12[C@H](COC(N)=O)C3=C(C(=O)C(C)=C(N)C3=O)N1C[C@@H]1N[C@@H]12 [MITO, Mitomycin C, reference compound]", "UNITS LABEL": "%", "ASSAY VALUE": 76}
{"COMPOUND": "CC1=C(/C=C/C(C)=C/C=C/C(C)=C/CO)C(C)(C)CCC1", "UNITS LABEL": "%", "ASSAY VALUE": 47}
{"COMPOUND": "CCCCCCOC(=O)c1ccccc1C(=O)c1ccc(N(CC)CC)cc1O", "UNITS LABEL": "%", "ASSAY VALUE": 44}

Lab book: Percentage of transparent zooxanthellae released of "Cc1c(C)c2c(c(C)c1O)CC[C@@](C)(CCC[C@H](C)CCC[C@H](C)CCCC(C)C)O2" noted as 38

Lab book: Percentage of transparent zooxanthellae released of CCCCCCCCCCCCCCCC(=O)OC/C=C(C)/C=C/C=C(C)/C=C/C1=C(C)CCCC1(C)C [System D19, retinyl palmitate] noted as 48
